# MEASURED_TARGET: 5-hydroxytryptamine receptor 6 (Homo sapiens, UniProt P50406)
# Sequence (P50406 whole entry): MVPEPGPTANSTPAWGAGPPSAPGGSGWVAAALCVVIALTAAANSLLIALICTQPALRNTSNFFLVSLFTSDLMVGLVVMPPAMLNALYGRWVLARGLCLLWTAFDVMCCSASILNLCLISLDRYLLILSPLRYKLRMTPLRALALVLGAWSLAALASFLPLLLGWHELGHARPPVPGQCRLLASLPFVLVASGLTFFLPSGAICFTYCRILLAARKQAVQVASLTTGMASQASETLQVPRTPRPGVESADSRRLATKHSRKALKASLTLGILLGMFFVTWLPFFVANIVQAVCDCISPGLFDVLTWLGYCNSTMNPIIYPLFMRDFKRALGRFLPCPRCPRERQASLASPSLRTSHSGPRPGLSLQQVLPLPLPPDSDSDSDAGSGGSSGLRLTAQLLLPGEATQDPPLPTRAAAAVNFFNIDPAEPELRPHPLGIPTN
# PROCEDURE_DETAILS: Inhibition of human recombinant 5HT6 receptor expressed in CHO cells
Please go through the items and note down their IC50.
Reply with just the number (in nM).

### Prompt Checklist item: IC50 tested on 5-hydroxytryptamine receptor 6 (Homo sapiens, UniProt P50406), entry `CN1CCC[C@@H]1Cc1cn(S(=O)(=O)c2ccccc2)c2ccc(Cl)cc12` , value?
### Response 8.5

### Prompt API: value(readout=IC50, system=5-hydroxytryptamine receptor 6 (Homo sapiens, UniProt P50406)) for record `Nc1ccc(S(=O)(=O)c2cc(Br)nc(N3CCCC3)c2)cc1`
### Response 3.2

### Prompt Query IC50 on 5-hydroxytryptamine receptor 6 (Homo sapiens, UniProt P50406) for `CN1CC=C(c2cn(S(=O)(=O)c3cccc4ccccc34)c3ccc(F)cc23)CC1`
### Response 24

### Prompt What IC50 appears in the records for this molecule with 5-hydroxytryptamine receptor 6 (Homo sapiens, UniProt P50406)? `COc1ccc(NS(=O)(=O)c2ccc(Br)cc2)cc1N1CCN(C)CC1`
### Response 16

* * *

Hi there, I'd appreciate the recorded bioavailability for every entry that follows.
# PROCEDURE_DETAILS: Oral bioavailability in rat
# Type: ADME, organism-based
# TEST_CONDITIONS: in vivo

### Prompt Dear colleague, I am looking for the recorded bioavailability of the following compound: O=S(=O)(c1ccccc1)c1cnc2c(N3CCNCC3)cccc2c1 [INTEPIRDINE]
### Response 76%

### Prompt Look up bioavailability: `COc1ccc(NS(=O)(=O)c2sc3ccc(Cl)cc3c2C)cc1N1CCNCC1`
### Response > 80%

### Prompt Give the measured bioavailability of `CN1CC=C(c2cn(S(=O)(=O)c3cccc4ccccc34)c3ccc(F)cc23)CC1` .
### Response 19%

### Prompt Query: bioavailability; subject: `CN1CCC[C@@H]1Cc1cn(S(=O)(=O)c2ccccc2)c2ccc(Cl)cc12`
### Response 17%

* * *

# MEASURED_TARGET: 5-hydroxytryptamine receptor 6 (Homo sapiens)
# PROCEDURE_DETAILS: Antagonist activity at human recombinant 5HT6 receptor expressed in CHO cells
Exercise: for every item that follows, state its recorded Ki.
Answer format: numeric, pM implied, no suffix.

### Prompt Recall the recorded Ki for `O=S(=O)(c1cccc(Cl)c1Cl)N1CCc2c(cccc2N2CCNCC2)C1` with 5-hydroxytryptamine receptor 6 (Homo sapiens) and state it.
### Response 40

### Prompt API: value(readout=Ki, system=5-hydroxytryptamine receptor 6 (Homo sapiens)) for record `O=C(Nc1ccccc1)n1cc(C2=CCNCC2)c2cc(F)ccc21`
### Response 118000

### Prompt Request: Ki, test system 5-hydroxytryptamine receptor 6 (Homo sapiens), entry `CN1CCN(c2cccc3c(S(=O)(=O)c4ccccc4)c[nH]c23)CC1`
### Response 500

### Prompt Request: Ki, test system 5-hydroxytryptamine receptor 6 (Homo sapiens), entry `CNC[C@@H]1COc2ccc(S(=O)(=O)c3ccccc3)cc2O1`
### Response 200

### Prompt Request: Ki, test system 5-hydroxytryptamine receptor 6 (Homo sapiens), entry `O=c1[nH]c2c(N3CCNCC3)cccc2n1Cc1ccccc1`
### Response 300

### Prompt Param readout= Ki; system= 5-hydroxytryptamine receptor 6 (Homo sapiens); entry= `COc1ccc(C)cc1S(=O)(=O)Nc1cc(OC2CCNCC2)c2occc2c1` ; returns value.
### Response 1200

### Prompt Missing value: Ki, 5-hydroxytryptamine receptor 6 (Homo sapiens), entry `O=c1n(C2=CCNCC2)c2ccccc2n1S(=O)(=O)c1ccc2ccccc2c1` . Fill in?
### Response 5700

### Prompt Which Ki is reported with 5-hydroxytryptamine receptor 6 (Homo sapiens) for this entry: CN1CCCC1Cc1c[nH]c2ccc(OC3CCCCC3)cc12 (centres undefined) ?
### Response 930

### Prompt Please state recorded Ki (tested on 5-hydroxytryptamine receptor 6 (Homo sapiens)) of `Clc1ccc(-c2[nH]c3ccccc3c2/C=N/NC2=NCCN2)cc1`
### Response 10000

* * *

# PROCEDURE_DETAILS: Half life in rat
# Format: ADME, organism-based
# TEST_CONDITIONS: in vivo
MEASURED_METRIC: half-life (h)
Numeric answer only, unit h assumed.

### Prompt Entry `COc1ccc(NS(=O)(=O)c2sc3ccc(Cl)cc3c2C)cc1N1CCNCC1` has what half-life?
### Response 4.8

* * *

# MEASURED_TARGET: UniProt:P50406
# PROCEDURE_DETAILS: Antagonist activity at human recombinant 5HT6 receptor expressed in CHO cells
Assign Ki to each entry below.
Give your result in nM as a bare value.

### Prompt Request the reported Ki associated with `COc1ccc(NS(=O)(=O)c2ccc(I)cc2)cc1N1CCNCC1`
### Response 2.3

### Prompt # get_value(readout='Ki', item= `O=S(=O)(c1cccc(F)c1)c1c[nH]c2c(OCCN3CCCC3)cccc12` )
### Response 20

### Prompt Item CN1CC2c3ccccc3Oc3ccc(Cl)cc3C2C1 (stereo unspecified) has what recorded Ki?
### Response 0.25

### Prompt So what does the record say about Ki for N=C(N)CCC1CCCc2cc(S(=O)(=O)c3ccccc3)ccc21 (stereo unspecified) ?
### Response 59

### Prompt For the compound shown here, `O=C(c1ccccc1)n1cc(C2=CCNCC2)c2cc(F)ccc21` , give the reported Ki.
### Response 99

### Prompt Given the entry `CSc1nn2c(N3CCNCC3)nc(C)nc2c1S(=O)(=O)c1ccccc1` , report its measured Ki.
### Response 1.2

### Prompt Record request: Ki value, item `COc1ccc(Cl)cc1NS(=O)(=O)c1ccc(OC)c2c1CC[C@H](N(C)C)C2`
### Response 1.7

### Prompt Sample `O=S(=O)(c1cccc(Cl)c1)n1ccc2c(N3CCNCC3)c(Cl)ccc21` — what was its Ki?
### Response 0.3

### Prompt Need Ki, item `O=S(=O)(Nc1ccc2c(c1)CNCCC2)c1csc(C(F)(F)F)c1-c1ccccc1`
### Response 32

### Prompt Which Ki reading was recorded for the compound CC(Nc1ccc2c(c1)CCNCC2)c1ccccc1Cl (stereo unspecified) ?
### Response 14

### Prompt Consider the compound `COc1cc(N2CCNCC2)c2ncc(C)c(Oc3ccccc3)c2c1` and give its measured Ki.
### Response 1

Data origin: ChEMBL document CHEMBL3352745
